target-entity: LRRK2 G2019S mutant kinase (Homo sapiens, UniProt Q5S007, G2019S)
Construct: GST
Sequence (Q5S007 whole entry G2019S): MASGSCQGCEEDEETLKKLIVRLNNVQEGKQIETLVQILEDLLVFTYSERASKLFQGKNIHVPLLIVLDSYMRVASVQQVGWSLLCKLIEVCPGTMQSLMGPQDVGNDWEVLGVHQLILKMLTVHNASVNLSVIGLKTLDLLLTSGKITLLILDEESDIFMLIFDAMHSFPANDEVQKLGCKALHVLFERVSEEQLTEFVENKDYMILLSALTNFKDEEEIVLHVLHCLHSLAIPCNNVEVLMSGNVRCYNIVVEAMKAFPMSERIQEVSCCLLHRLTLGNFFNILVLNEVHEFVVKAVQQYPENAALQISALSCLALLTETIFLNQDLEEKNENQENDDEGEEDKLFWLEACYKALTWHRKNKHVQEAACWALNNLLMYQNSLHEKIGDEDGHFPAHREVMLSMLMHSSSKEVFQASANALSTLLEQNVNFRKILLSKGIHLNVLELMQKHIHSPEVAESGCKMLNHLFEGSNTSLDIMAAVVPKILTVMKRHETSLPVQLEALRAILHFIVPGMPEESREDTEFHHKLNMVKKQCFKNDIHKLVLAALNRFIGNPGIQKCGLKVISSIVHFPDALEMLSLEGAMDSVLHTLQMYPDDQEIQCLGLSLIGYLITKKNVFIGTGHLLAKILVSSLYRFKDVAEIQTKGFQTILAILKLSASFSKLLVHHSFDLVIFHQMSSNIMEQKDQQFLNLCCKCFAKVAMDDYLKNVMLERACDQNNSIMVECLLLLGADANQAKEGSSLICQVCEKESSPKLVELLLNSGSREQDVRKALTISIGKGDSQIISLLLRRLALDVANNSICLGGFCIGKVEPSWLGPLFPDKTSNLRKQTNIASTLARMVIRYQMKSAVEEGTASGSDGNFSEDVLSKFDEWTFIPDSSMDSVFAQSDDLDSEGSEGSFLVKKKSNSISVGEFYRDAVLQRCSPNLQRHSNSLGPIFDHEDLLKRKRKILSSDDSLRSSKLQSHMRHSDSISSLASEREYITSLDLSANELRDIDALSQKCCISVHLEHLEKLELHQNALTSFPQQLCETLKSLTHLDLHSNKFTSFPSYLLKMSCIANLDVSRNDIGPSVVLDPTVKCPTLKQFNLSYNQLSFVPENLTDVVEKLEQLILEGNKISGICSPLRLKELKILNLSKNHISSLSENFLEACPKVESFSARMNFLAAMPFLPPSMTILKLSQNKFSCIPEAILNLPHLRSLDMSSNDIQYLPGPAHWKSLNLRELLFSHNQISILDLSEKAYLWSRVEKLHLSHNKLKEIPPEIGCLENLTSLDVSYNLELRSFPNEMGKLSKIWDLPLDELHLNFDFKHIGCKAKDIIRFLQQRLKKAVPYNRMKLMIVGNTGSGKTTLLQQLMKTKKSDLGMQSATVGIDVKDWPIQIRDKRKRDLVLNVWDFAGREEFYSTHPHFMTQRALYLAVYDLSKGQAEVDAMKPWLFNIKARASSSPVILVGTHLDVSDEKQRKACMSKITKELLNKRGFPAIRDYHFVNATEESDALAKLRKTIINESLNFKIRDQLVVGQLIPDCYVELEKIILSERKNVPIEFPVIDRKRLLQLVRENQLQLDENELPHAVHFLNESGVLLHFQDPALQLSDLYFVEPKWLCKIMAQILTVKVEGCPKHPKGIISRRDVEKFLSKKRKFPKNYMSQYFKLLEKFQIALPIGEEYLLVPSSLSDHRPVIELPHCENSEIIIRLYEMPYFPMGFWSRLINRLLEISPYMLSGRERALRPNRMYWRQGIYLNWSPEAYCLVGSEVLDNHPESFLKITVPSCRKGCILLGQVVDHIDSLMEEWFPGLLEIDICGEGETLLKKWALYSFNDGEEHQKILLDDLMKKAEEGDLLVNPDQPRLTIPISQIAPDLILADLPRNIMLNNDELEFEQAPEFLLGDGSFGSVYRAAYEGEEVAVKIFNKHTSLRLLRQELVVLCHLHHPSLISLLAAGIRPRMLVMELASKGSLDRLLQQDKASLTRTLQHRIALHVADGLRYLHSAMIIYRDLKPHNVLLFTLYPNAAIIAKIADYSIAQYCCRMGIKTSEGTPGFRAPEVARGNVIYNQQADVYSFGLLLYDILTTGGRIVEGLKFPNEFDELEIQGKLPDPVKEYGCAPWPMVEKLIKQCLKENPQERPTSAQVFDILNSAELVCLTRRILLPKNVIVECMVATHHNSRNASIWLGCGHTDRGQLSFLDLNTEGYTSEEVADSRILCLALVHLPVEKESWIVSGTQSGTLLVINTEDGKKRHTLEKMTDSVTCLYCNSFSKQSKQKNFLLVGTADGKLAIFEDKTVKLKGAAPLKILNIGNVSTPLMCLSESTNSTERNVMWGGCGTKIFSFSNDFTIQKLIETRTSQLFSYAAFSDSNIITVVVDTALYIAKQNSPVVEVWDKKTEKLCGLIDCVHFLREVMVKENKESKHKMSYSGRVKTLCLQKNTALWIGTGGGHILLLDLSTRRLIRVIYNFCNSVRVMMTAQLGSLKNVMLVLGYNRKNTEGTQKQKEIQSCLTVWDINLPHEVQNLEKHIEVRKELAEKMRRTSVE
assay-remarks: LRRK2 G2019S LanthaScreen TR-FRET kinase assay
run-conditions: LRRK2 G2019S GST-tagged protein, 75 nM Fluorescein-ERM (LRRKtide), 100 μM ATP, 1 hour at room temperature; read-out: IC50 (potency)
Description: The final solvent concentration in the assay was 1% DMSO. […] Generation of raw data and workup of data to derive the IC50 (potency) and maximal inhibition at concentrations tested were performed using Merck's Assay Data Analyzer (ADA) software. The IC50 (potency) was evaluated for the example compounds presented above.
Lab note - cut at 300 nM for IC50: Criterion met if strictly below, Criterion not met if not.

CNc1sc(-c2cc[nH]n2)c2c1C(=O)NC(Cc1ccccc1)C2 (stereo not shown) [Example 93] = Criterion not met
CCC(C)CSc1sc(-c2cc[nH]n2)c2c1C(=O)N[C@H](C)C2 (stereo partly shown) [Example 49] = Criterion met
CSc1sc(-c2cc[nH]n2)c2c1C(=O)NC(C(=O)OC(C)(C)C)C2 (stereo not shown) [Example 20] = Criterion not met
CSc1sc(-c2cc[nH]n2)c2c1C(=O)N(CCc1ccccc1)CC2 [Example 55] = Criterion not met
O=C1NC(C(F)(F)F)Cc2c(-c3cc[nH]n3)sc(SC3CCCC3)c21 (stereo not shown) [Example 35] = Criterion met
O=C1NCCc2c(-c3cc[nH]n3)sc(NC3CCCC3)c21 [Example 90] = Criterion not met

Task: Does the reported IC50 of the following molecule sit strictly below 300 nM? CC1Cc2c(-c3cc[nH]n3)sc(SC3CCCC3)c2C(=O)N1 (stereo not shown) [Example 31]
Output: Criterion met

Task: Does the reported IC50 of the following molecule sit strictly below 300 nM? CSc1sc(-c2cc[nH]n2)c2c1C(=O)N(CCCCOc1ccccc1)CC2 [Example 68]
Output: Criterion not met

Task: Does the reported IC50 of the following molecule sit strictly below 300 nM? CC(C)CC1Cc2c(-c3cc[nH]n3)sc(NC3CCCC3)c2C(=O)N1 (stereo not shown) [Example 89]
Output: Criterion met
